# Lookup of reported IC50 keyed by entry
- Test system: TDP-43 aggregation in PC12 cells stably expressing GFP-tagged mutant TDP-43 (TDP-43^Q33IK::eGFP)
- experiment description: In vitro efficacy assay: inhibition of TDP-43 inclusions, concentration-response, fluorescence microscopy
- Format: cell-based
- condition set: Rattus norvegicus, PC-12, PC12 cells, 1 hour pre-treatment, 15 μM sodium arsenite for 23 hours, 10-point dose response curve
readout label: IC50

compound="O=C(c1cc2ncccc2[nH]1)N(CC(F)(F)F)[C@H]1CCC[C@@H](NCc2ccc(F)cc2)C1 [Compound 423]" readout_label=IC50 result="< 100 nM"
compound="O=C(c1cc2ccccc2[nH]1)N(CC(F)(F)F)[C@H]1CCC[C@H](NCc2ccccc2)C1 [Compound 178]" readout_label=IC50 result="500 to 2000 nM"
compound="O=C(c1cc2ccccc2[nH]1)N(CC(F)(F)F)[C@H]1CCC[C@@H](NCc2ccc(F)cc2)C1 [Compound 171]" readout_label=IC50 result="< 100 nM"
compound="CCN(C(=O)c1cc2cc(C#N)ccc2[nH]1)[C@H]1CCC[C@@H](NCc2oc3ccccc3c2C#N)C1 [Compound 536]" readout_label=IC50 result="< 100 nM"
compound="CCN(C(=O)c1cc2ccccc2[nH]1)[C@H]1CCC[C@@H](NC(=O)c2ccccc2)C1 [Compound 200]" readout_label=IC50 result="> 2000 nM"
compound="CCN(C(=O)c1cc2ccccc2[nH]1)[C@@H]1C[C@H](NCc2ccccc2)CS(=O)(=O)C1 [Compound 313]" readout_label=IC50 result="> 2000 nM"
compound="CCN(C(=O)c1cc2ccccc2[nH]1)[C@H]1COC[C@@H](N[C@@H]2CCc3ccccc32)C1 [Compound 504]" readout_label=IC50 result="< 100 nM"
compound="CCN(C(=O)c1nc2ccccc2[nH]1)[C@H]1CCC[C@@H](NCc2cc3ccccc3o2)C1 [Compound 479]" readout_label=IC50 result="< 100 nM"
compound="CCN(C(=O)c1nc2ccccc2[nH]1)[C@H]1CCC[C@@H](NCc2cccc(OC(F)(F)F)c2)C1 [Compound 472]" readout_label=IC50 result="< 100 nM"
compound="CCN(C(=O)c1cc2ncccc2[nH]1)[C@H]1CCC[C@@H](NC2(c3ccccc3)CC2)C1 [Compound 418]" readout_label=IC50 result="100 to 500 nM"
compound="O=C(c1cc2ccccc2[nH]1)N(CC(F)(F)F)C1CCC[C@H](NCc2cccnc2)C1 (stereo partly drawn) [Compound 174]" readout_label=IC50 result="> 2000 nM"
compound="CCN(C(=O)c1nc2cc(F)ccc2[nH]1)[C@H]1CCC[C@@H](NCc2cc3ccccc3o2)C1 [Compound 523]" readout_label=IC50 result="< 100 nM"
compound="CCN(C(=O)c1cc2ccccc2[nH]1)[C@H]1CCC[C@H](N2CCc3ccccc3C2)C1 [Compound 116]" readout_label=IC50 result="500 to 2000 nM"
compound="CCN(C(=O)c1nc2ccccc2[nH]1)[C@H]1CCC[C@@H](NCc2ccc3nc(C)oc3c2)C1 [Compound 530]" readout_label=IC50 result="< 100 nM"
compound="CCN(C(=O)c1cc2c([nH]1)CCCO2)[C@H]1CCC[C@@H](NCc2ccccc2)C1 [Compound 511]" readout_label=IC50 result="100 to 500 nM"
